List of normalized growth values.
EXPERIMENT: chemical genetic growth profiling, strain panel (AID 1159580);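 also: tested at 20 µM; growth read once vehicle control cultures reached saturation at 30 °C; 1 = growth at the plate median or of vehicle wells; lower values mean less growth of the strain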
ASSAY_CONDITIONS: S. cerevisiae deletion strains, growth OD, locus YML016C, strain PPZ1, active compounds read low
In all, about 5,500 compounds went through this assay and about 2,000 (36%) were called active. Inconclusive results (about 18%) are left out. The list shows a part of the results.

{"MOLECULE": "COc1c(C2COc3cc4c(cc3C2=O)CC(O)C(C)(C)O4)ccc2c1CCC(C)(C)O2 (stereo not drawn)", "normalized growth": 1}
{"MOLECULE": "COc1ccccc1-c1cc(=O)c2cccc(OC)c2o1", "normalized growth": 0.956}
{"MOLECULE": "CN(C)CCCO[C@H]1[C@@H](C(O)CO)OC2OC(C)(C)O[C@@H]21 (stereo partly drawn)", "normalized growth": 0.979}
{"MOLECULE": "CCOc1ccc2c(c1)C(C)=CC(C)(C)N2", "normalized growth": 0.984}
{"MOLECULE": "CC(=O)Oc1cc(C)c2c(c1C(OC(C)=O)OC(C)=O)Oc1c(c(C)c(OC(C)=O)c3c1C(OC(C)=O)OC3=O)OC2=O (stereo not drawn)", "normalized growth": 0.971}
{"MOLECULE": "NC(=O)c1cc[n+](CC2=C(C(=O)O)N3C(=O)C(NC(=O)C(c4ccccc4)S(=O)(=O)[O-])C3SC2)cc1 (stereo not drawn)", "normalized growth": 0.982}
{"MOLECULE": "COC(=O)[C@H]1[C@H]2C[C@@H]3c4[nH]c5cc(OC)ccc5c4CCN3C[C@H]2C[C@@H](OC(=O)c2cc(OC)c(OC)c(OC)c2)[C@@H]1OC", "normalized growth": 1}
{"MOLECULE": "c1cc2c(cc1[C@H]1OC[C@H]3[C@@H]1CO[C@H]3c1ccc3c(c1)OCO3)OCO2", "normalized growth": 0.947}
{"MOLECULE": "CC(=O)O[C@H]1C[C@@H](OC(C)=O)C(C)(C)C2C[C@@H](OC(C)=O)[C@]3(C)C(CC[C@@]4(C)[C@H](c5ccoc5)C(=O)[C@H]5O[C@]543)[C@]21C (stereo partly drawn)", "normalized growth": 1.01}
{"MOLECULE": "C[C@H](COc1ccccc1)N[C@H](C)[C@H](O)c1ccc(O)cc1", "normalized growth": 0.986}
{"MOLECULE": "CC(=O)OCC(=O)[C@@]12OC(C)(C)O[C@@H]1CC1C3C[C@H](F)C4=CC(=O)C=C[C@]4(C)[C@@]3(F)[C@@H](O)C[C@@]12C (stereo partly drawn)", "normalized growth": 1}
{"MOLECULE": "C=CCN1CC[C@]23c4c5ccc(O)c4OC2C(=O)CC[C@@]3(O)[C@H]1C5 (stereo partly drawn)", "normalized growth": 1.01}
{"MOLECULE": "CCn1cc(C(=O)O)c(=O)c2cnc(N3CCNCC3)nc21", "normalized growth": 0.977}
{"MOLECULE": "C[C@](N)(Cc1ccc(O)c(O)c1)C(=O)O", "normalized growth": 0.957}
{"MOLECULE": "C[C@@H]1C[C@@H]([C@H](O)CC2CC(=O)NC(=O)C2)C(=O)[C@@H](C)C1", "normalized growth": 0.055}
{"MOLECULE": "COc1ccccc1-c1cc(=O)c2c(OC)cccc2o1", "normalized growth": 0.983}
{"MOLECULE": "CC1CC2C(C(O)CC3(C)C2CCC3(O)C(=O)COC(=O)CCC(=O)O)C2(C)C=CC(=O)C=C12 (stereo not drawn)", "normalized growth": 1.01}
{"MOLECULE": "CCn1cc(C(=O)O)c(=O)c2cc3c(cc21)OCO3", "normalized growth": 1.01}

---

EXPERIMENT: chemical genetic growth profiling, strain panel (AID 1159580);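 also: tested at 20 µM; growth read once vehicle control cultures reached saturation at 30 °C; 1 = growth at the plate median or of vehicle wells; lower values mean less growth of the strain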
ASSAY_CONDITIONS: S. cerevisiae deletion strains, growth OD, locus YDR150W, strain NUM1
Among all 5,500 compounds or so, about 2,000 (36%) were called active. About 18% were inconclusive and are not listed. Rule as the data show it: active = normalized growth mostly below about 0.91 (no sharp cut-off); inconclusive = no clear call, values can overlap the other calls; inactive = mostly above about 0.92. The list shows a part of the results.
Possible outcomes: true (1) (active), false (0) (inactive)

{"COMPOUND": "BrC12CC3CC(CC(C3)C1)C2", "ASSIGNED_CATEGORY": "false (0)"}
{"COMPOUND": "COc1ccc(-c2cc(C(F)F)nn2-c2ccc(S(N)(=O)=O)cc2)cc1F", "ASSIGNED_CATEGORY": "false (0)"}
{"COMPOUND": "O=c1[nH]cnc2ccc(Br)cc12", "ASSIGNED_CATEGORY": "false (0)"}
{"COMPOUND": "C[C@@H]1C[C@@H]([C@H](O)CC2CC(=O)NC(=O)C2)C(=O)[C@@H](C)C1", "ASSIGNED_CATEGORY": "true (1)"}
{"COMPOUND": "CN(C)CCCO[C@@H]1[C@H]2OC(C)(C)O[C@H]2O[C@@H]1C(O)CO (some centres not stated)", "ASSIGNED_CATEGORY": "false (0)"}
{"COMPOUND": "S=c1[nH]c2ccccc2s1", "ASSIGNED_CATEGORY": "false (0)"}
{"COMPOUND": "CN=C1CN(O)C(c2ccccc2)=c2cc(Cl)ccc2=N1", "ASSIGNED_CATEGORY": "false (0)"}
{"COMPOUND": "C=CCN1CC[C@]23c4c5ccc(O)c4O[C@@H]2/C(=N\\N=C2\\CC[C@@]4(O)C6Cc7ccc(O)c8c7[C@@]4(CCN6CC=C)[C@@H]2O8)CC[C@@]3(O)C1C5", "ASSIGNED_CATEGORY": "false (0)"}
{"COMPOUND": "CO[C@@H]1[C@@H](O[C@@H]2O[C@H](C)[C@@H](O[C@H]3C[C@@](C)(O)[C@H](O)[C@H](C)O3)[C@H](N(C)C)[C@H]2O)[C@@H](CC=O)C[C@@H](C)[C@@H](O[C@H]2CC[C@H](N(C)C)[C@@H](C)O2)/C=C/C=C/C[C@H](C)OC(=O)C[C@H]1O", "ASSIGNED_CATEGORY": "false (0)"}
{"COMPOUND": "COc1cc(C)c2c(c1C=O)Oc1c(c(C)c(O)c3c1C(O)OC3=O)OC2=O (configuration not stated)", "ASSIGNED_CATEGORY": "false (0)"}
{"COMPOUND": "N/C(=N\\OC(=O)c1ccno1)c1ccc(C(F)(F)F)cc1", "ASSIGNED_CATEGORY": "false (0)"}
{"COMPOUND": "O=C(Nc1ccc(Cl)cc1Cl)c1cnccn1", "ASSIGNED_CATEGORY": "false (0)"}
{"COMPOUND": "CCOC(=O)c1cc(-c2ccc(N)cc2)oc1C", "ASSIGNED_CATEGORY": "false (0)"}
{"COMPOUND": "Fc1cccc(Cl)c1Cn1nnc(N2CCCCC2)n1", "ASSIGNED_CATEGORY": "false (0)"}
{"COMPOUND": "CC(=O)OCC(=O)[C@@]12OC(C)(C)O[C@@H]1CC1C3C[C@H](F)C4=CC(=O)C=C[C@]4(C)[C@@]3(F)[C@@H](O)C[C@@]12C (some centres not stated)", "ASSIGNED_CATEGORY": "false (0)"}
{"COMPOUND": "ON(Cc1c(F)cccc1Cl)Cc1c(F)cccc1Cl", "ASSIGNED_CATEGORY": "false (0)"}
{"COMPOUND": "CN(C)CCCO[C@H]1[C@@H](C(O)CO)OC2OC(C)(C)O[C@@H]21 (some centres not stated)", "ASSIGNED_CATEGORY": "false (0)"}
{"COMPOUND": "c1ccc(C2CC2)c(OCC2=NCCN2)c1", "ASSIGNED_CATEGORY": "false (0)"}
{"COMPOUND": "O=C1NC(c2c(F)cccc2Cl)Nc2ccccc21 (configuration not stated)", "ASSIGNED_CATEGORY": "false (0)"}
{"COMPOUND": "OC1CCCCC1N1CCC(c2ccccc2)CC1 (configuration not stated)", "ASSIGNED_CATEGORY": "false (0)"}
{"COMPOUND": "COC(=O)c1ccc(S(=O)(=O)NCc2ccccc2)n1C", "ASSIGNED_CATEGORY": "false (0)"}
{"COMPOUND": "O=C1O[C@@H](CO)[C@H](O)[C@@H](O)[C@@H]1O", "ASSIGNED_CATEGORY": "false (0)"}
{"COMPOUND": "CCOP(=S)(OCC)Oc1ccc2c(C)c(Cl)c(=O)oc2c1", "ASSIGNED_CATEGORY": "false (0)"}
{"COMPOUND": "COC(=O)c1ccc(C#Cc2ccccc2)o1", "ASSIGNED_CATEGORY": "false (0)"}
{"COMPOUND": "CCC(=O)N1CCN(C(=O)c2ccccc2)CC1", "ASSIGNED_CATEGORY": "false (0)"}
{"COMPOUND": "CC[C@]12CCCN3CCc4c(n(c5ccccc45)C(=O)C1)[C@@H]32", "ASSIGNED_CATEGORY": "false (0)"}
{"COMPOUND": "NC1CCN(c2cccc(Cl)n2)CC1", "ASSIGNED_CATEGORY": "false (0)"}
{"COMPOUND": "NCCCCN=C(N)N", "ASSIGNED_CATEGORY": "false (0)"}
{"COMPOUND": "CC12CCC(CC1)C(C)(C)O2", "ASSIGNED_CATEGORY": "false (0)"}
{"COMPOUND": "CCOC(=O)C1=CC2(CC)CCCN3CCc4c(n1c1ccccc41)C32 (configuration not stated)", "ASSIGNED_CATEGORY": "false (0)"}
{"COMPOUND": "Cc1onc(-c2ccccc2Cl)c1C(=O)Nc1ccc(S(=O)(=O)Nc2nccs2)cc1", "ASSIGNED_CATEGORY": "false (0)"}
{"COMPOUND": "COC(=O)c1ccc(-c2ccccc2F)cc1", "ASSIGNED_CATEGORY": "false (0)"}
{"COMPOUND": "CC(C)(C)OC(=O)N1CCN(Cc2ccccc2)CC1", "ASSIGNED_CATEGORY": "false (0)"}
{"COMPOUND": "S=c1[nH]c2ccccc2[nH]1", "ASSIGNED_CATEGORY": "false (0)"}
{"COMPOUND": "O=C(c1ccc2c(c1)OCCO2)N1CCCCC1", "ASSIGNED_CATEGORY": "false (0)"}
{"COMPOUND": "O=C(OCCN1CCOCC1)C1(c2ccccc2)CCCCC1", "ASSIGNED_CATEGORY": "false (0)"}
{"COMPOUND": "CCOP(=S)(OCC)SCSCC", "ASSIGNED_CATEGORY": "false (0)"}
{"COMPOUND": "CC(=O)C1=C(O)C2C3c4c[nH]c5cccc(c45)CC3C(C)(C)N2C1=O (configuration not stated)", "ASSIGNED_CATEGORY": "false (0)"}
{"COMPOUND": "COc1c(C(=O)O)ccc2c1CCC(C)(C)O2", "ASSIGNED_CATEGORY": "false (0)"}
{"COMPOUND": "CC1=CC(=O)CC(C)(C)C1(O)/C=C/C(C)=C\\C(=O)O (configuration not stated)", "ASSIGNED_CATEGORY": "false (0)"}
{"COMPOUND": "Cc1ccc(Cl)cc1NC(=S)NCCO", "ASSIGNED_CATEGORY": "false (0)"}
{"COMPOUND": "CC/C(=N/Oc1ccc(C(F)(F)F)cn1)c1ccc(-c2ccccc2F)cc1", "ASSIGNED_CATEGORY": "false (0)"}
{"COMPOUND": "CCOP(=S)(OCC)SCSP(=S)(OCC)OCC", "ASSIGNED_CATEGORY": "false (0)"}
{"COMPOUND": "CSc1nc2ccc(NC(=O)c3c(-c4ccccc4)noc3C)cc2s1", "ASSIGNED_CATEGORY": "false (0)"}
{"COMPOUND": "O=C(O)CNCP(=O)(O)O", "ASSIGNED_CATEGORY": "false (0)"}
{"COMPOUND": "COC(=O)[C@@H](N)CCCN=C(N)N[N+](=O)[O-]", "ASSIGNED_CATEGORY": "false (0)"}
{"COMPOUND": "c1ccc2c(N3CCNCC3)cccc2c1", "ASSIGNED_CATEGORY": "false (0)"}
